All values here come from PubChem BioAssay.

The reader will find reported z-score values listed item by item below.
# assay.notes: E. coli acrAB mutant growth effects, primary screen, E. coli filamentation inducers, strain DRC39, OD650, 48 h (AID 1179);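 note: screen aims at cell division blockers that make cells filament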
# condition.summary: E. coli DRC39 delta-acrAB growth, higher = more signal, called active from +8 up or from −8 down
observed.property: z-score

>>> quantitative_result("COc1ccc(COC(=O)NN=C2C[C@@H](O)[C@@H](O)[C@@H]3[C@@H]4C(=O)N(C[C@@H]5CCCO5)C(=O)[C@@H]4CC[C@H]23)cc1")
0.0875
>>> quantitative_result("COCOc1ccc(Br)cc1C(=O)C=Cc1ccc2c(c1)OCO2")
0.253
>>> quantitative_result("CC(C)[C@@H](OCc1ccccc1)[C@H](C)C=NO[C@H](C)c1cn([C@@H]2COC[C@H]2O)nn1")
0.178
>>> quantitative_result("CCCNC(=O)OC[C@H]1O[C@H](CCON=C2c3cc(OC)ccc3O[C@H](c3cccc(OC)c3)[C@H]2O)C=C[C@@H]1Oc1ccc(OC)cc1")
-0.034
>>> quantitative_result("COC(=O)[C@@H]1CC[C@H](C)[C@@H](c2ccc(C)cc2)N1C(=O)c1ccc(C=NOC[C@H]2O[C@H](c3ccccc3)C=C[C@@H]2Oc2ccc(OC)cc2)cc1")
-0.499
>>> quantitative_result("O=C1[C@H]2[C@H]3[C@H](O)[C@H](O)CC(=NOC[C@@H](O)COCc4ccco4)[C@@H]3CC[C@H]2C(=O)N1Cc1ccc2c(c1)OCO2")
1.29
>>> quantitative_result("CC1(C)O[C@H]2OC([C@H](O)CON3C(=O)c4ccccc4C3=O)[C@H](O)[C@H]2O1 (some centres not stated)")
0.209
